Exercise: for every item that follows, state its recorded GFP response relative to DMSO.
assay: LAP4-GFP expression modulators in yeast, confirmation, cell-based, cherry picks, flow cytometry, mother/daughter gates (AID 2271);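 further: ratio of sample to DMSO plate mean so 100% equals DMSO level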; details: S. cerevisiae LAP4-GFP strain, 3 h, measured here: mother cell gate response, at 10 µM, stronger effect = higher value, 100 means same as DMSO control
A number alone suffices; assume %.

Sure, the documented GFP response relative to DMSO for Cc1ccc(/C=C2\SC(=S)N(CC3CCCO3)C2=O)o1 (stereo unspecified) is 194

Sure, the documented GFP response relative to DMSO for COc1ccc(N2CCN(C(=O)c3ccc(OCC4CCCO4)cc3)CC2)cc1 (stereo unspecified) is 98.4

Sure, the documented GFP response relative to DMSO for COc1ccc(/C=N/c2c(-c3ccco3)nc3ccccn23)cc1OC is 93.6

Sure, the documented GFP response relative to DMSO for CCOC(=O)C(=Cc1ccc(F)cc1)C(=O)OCC is 111

Sure, the documented GFP response relative to DMSO for C[C@]12CCC(=O)C=C1CC[C@@H]1[C@@H]2C(=O)C[C@@]2(C)[C@H]1CC[C@]2(O)C(=O)CO is 94.6

Sure, the documented GFP response relative to DMSO for O=C(O)C1CCC(NSc2ccccc2[N+](=O)[O-])CC1 (stereo unspecified) is 157

Sure, the documented GFP response relative to DMSO for C=CCNC(=S)N/N=C(\C)c1cccc(OC)c1 is 97.5

Sure, the documented GFP response relative to DMSO for CCOC(=O)c1c(C)oc2c1c(C(c1cccnc1)N1CCOCC1)c(O)c1ccccc12 (stereo unspecified) is 188

Sure, the documented GFP response relative to DMSO for CCOc1ccc(C(=O)/C=C/c2ccccc2C(F)(F)F)cc1 is 96.1

Sure, the documented GFP response relative to DMSO for CC(Oc1ccc(Cl)cc1Cl)C(=O)NC1=NN(c2ccccc2)C(=O)C1 (stereo unspecified) is 98.3

Sure, the documented GFP response relative to DMSO for Cc1sc(NC(=O)c2cccs2)nc1-c1ccccc1 is 112
